- TARGET_DESC: UniProtKB Q8NFU5
- ASSAY_SUMMARY: Enzyme-coupled assay, IPMK IC50
- Assay type: biochemical
- RUN_PARAMETERS: enzyme-coupled assay; Table 3
pIC50: −log10 of the molar value.
Quick reference for pIC50 among some molecules

Below, each entry is followed by its recorded pIC50 result.
{"MOLECULE": "O=C(O)c1ccc2noc(-c3ccc(Cc4ccccc4)cc3)c2c1 [Compound 54]", "TARGET_DESC": "UniProtKB Q8NFU5", "ASSAY_READOUT": "pIC50", "RESULT": "7.00 to 8.00"}
{"MOLECULE": "O=C(O)c1ccc2noc(-c3ccc(-c4cccnc4)cc3)c2c1 [Compound 57]", "TARGET_DESC": "UniProtKB Q8NFU5", "ASSAY_READOUT": "pIC50", "RESULT": "7.00 to 8.00"}
{"MOLECULE": "O=C(O)c1ccc2noc(-c3ccc(-c4ccncc4)cc3)c2c1 [Compound 58]", "TARGET_DESC": "UniProtKB Q8NFU5", "ASSAY_READOUT": "pIC50", "RESULT": "7.00 to 8.00"}

Continue with the next molecule.
Data request: Look at this molecule and give its reported pIC50. O=C(O)c1ccc2noc(-c3ccc(N4CCCC4=O)cc3)c2c1 [Compound 56]
Data returned: 4.00 to 6.00

====

- TARGET_DESC: IP6K1 (Homo sapiens (Human), UniProt Q92551)
- Sequence (Q92551 whole entry): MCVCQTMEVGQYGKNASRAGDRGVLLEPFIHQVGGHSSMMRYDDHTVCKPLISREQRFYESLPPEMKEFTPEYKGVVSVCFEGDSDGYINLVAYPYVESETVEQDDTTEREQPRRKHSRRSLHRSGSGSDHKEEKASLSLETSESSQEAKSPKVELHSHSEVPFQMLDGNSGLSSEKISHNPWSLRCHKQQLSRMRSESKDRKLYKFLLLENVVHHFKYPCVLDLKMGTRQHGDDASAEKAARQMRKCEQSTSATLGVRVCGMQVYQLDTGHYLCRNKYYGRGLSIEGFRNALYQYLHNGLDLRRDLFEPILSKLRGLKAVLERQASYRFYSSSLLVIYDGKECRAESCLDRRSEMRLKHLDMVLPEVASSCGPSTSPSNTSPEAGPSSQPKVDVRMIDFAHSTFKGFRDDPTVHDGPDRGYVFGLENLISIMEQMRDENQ
- ASSAY_SUMMARY: Enzyme-coupled assay of IP6K1 activity (Dipp1-coupled, malachite green Pi release)
- Type: biochemical
- RUN_PARAMETERS: enzyme-coupled assay; Table 6
pIC50: −log10 of the molar value.
ASSAY_READOUT: pIC50

Data request: I'm curious: which pIC50 was measured for O=C(O)c1ccc2onc(-c3ccccc3)c2c1 [Cmpd 91] tested on IP6K1 (Homo sapiens (Human), UniProt Q92551)?
Data returned: 4.00 to 6.00

====

- TARGET_DESC: IP6K3 (Homo sapiens (Human))
- Sequence (Q96PC2 whole entry): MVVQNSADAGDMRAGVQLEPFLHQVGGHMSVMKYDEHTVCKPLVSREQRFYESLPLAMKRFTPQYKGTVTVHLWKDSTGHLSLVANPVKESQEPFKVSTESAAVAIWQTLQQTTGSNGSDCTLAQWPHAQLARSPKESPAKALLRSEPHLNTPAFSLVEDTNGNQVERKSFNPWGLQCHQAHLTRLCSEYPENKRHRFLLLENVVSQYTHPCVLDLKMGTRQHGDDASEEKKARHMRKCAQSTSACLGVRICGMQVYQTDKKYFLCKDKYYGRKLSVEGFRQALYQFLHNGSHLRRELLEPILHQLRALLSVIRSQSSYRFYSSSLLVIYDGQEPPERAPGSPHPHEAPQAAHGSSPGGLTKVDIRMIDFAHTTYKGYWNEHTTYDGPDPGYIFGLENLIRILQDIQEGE
- ASSAY_SUMMARY: Enzyme-coupled assay of IP6K3 activity (Dipp1-coupled, malachite green Pi release)
- Assay type: biochemical
- RUN_PARAMETERS: enzyme-coupled assay; Table 3
pIC50: −log10 of the molar value.
ASSAY_READOUT: pIC50

Below, each entry is followed by its recorded pIC50 result.
{"COMPOUND": "O=C(O)c1ccc2noc(-c3ccc(N4CCCC4=O)cc3)c2c1 [Compound 56]", "ASSAY_READOUT": "pIC50", "RESULT": "4.00 to 6.00"}
{"COMPOUND": "O=C(O)c1ccc2noc(-c3ccc(N4CCCCC4)cc3)c2c1 [Compound 55]", "ASSAY_READOUT": "pIC50", "RESULT": "4.00 to 6.00"}
{"COMPOUND": "O=C(O)c1ccc2noc(-c3ccc(-c4ccncc4)cc3)c2c1 [Compound 58]", "ASSAY_READOUT": "pIC50", "RESULT": "6.00 to 7.00"}

Continue with the next compound.
Data request: Look at this compound and give its reported pIC50. O=C(O)c1ccc2noc(-c3ccc(Cc4ccccc4)cc3)c2c1 [Compound 54]
Data returned: 4.00 to 6.00

====

- TARGET_DESC: UniProt:Q96PC2
- ASSAY_SUMMARY: Enzyme-coupled assay of IP6K3 activity (Dipp1-coupled, malachite green Pi release)
- Type: biochemical
- RUN_PARAMETERS: enzyme-coupled assay; Table 2
ASSAY_READOUT: IC50

{"COMPOUND_SMILES": "O=C(O)c1ccc2noc(-c3cccc(Oc4ccccc4)c3)c2c1", "TARGET_DESC": "UniProt:Q96PC2", "IC50": "0.1 to 1 µM"}
{"COMPOUND_SMILES": "O=C(O)c1ccc2noc(-c3cccc(Oc4ncc(Cl)cc4Cl)c3)c2c1", "TARGET_DESC": "UniProt:Q96PC2", "IC50": "1 to 100 µM"}
{"COMPOUND_SMILES": "O=C(O)c1ccc2noc(-c3ccc(NC(=O)c4ccncn4)cc3)c2c1", "TARGET_DESC": "UniProt:Q96PC2", "IC50": "0.1 to 1 µM"}
{"COMPOUND_SMILES": "O=C(O)c1ccc2noc(-c3ccc(Oc4ccccc4)cc3)c2c1", "TARGET_DESC": "UniProt:Q96PC2", "IC50": "0.1 to 1 µM"}
{"COMPOUND_SMILES": "O=C(O)c1ccc2noc(-c3cccc(Oc4ccccn4)c3)c2c1", "TARGET_DESC": "UniProt:Q96PC2", "IC50": "1 to 100 µM"}

Continue with the next molecule.
Data request: I'm curious: which IC50 was measured for "O=C(O)c1ccc2noc(-c3ccc(NC(=O)C4CC4)cc3)c2c1" tested on UniProt:Q96PC2?
Data returned: 0.1 to 1 µM

====

Quick reference for pIC50 among some compounds
- TARGET_DESC: IP6K1 (Homo sapiens (Human), UniProt Q92551)
- ASSAY_SUMMARY: Enzyme-coupled assay of IP6K1 activity (Dipp1-coupled, malachite green Pi release)
- Assay type: biochemical
- RUN_PARAMETERS: enzyme-coupled assay; Table 4
pIC50: −log10 of the molar value.

{"COMPOUND_SMILES": "O=C(Nc1ccc(-c2onc3ccc(-c4nnn[nH]4)cc23)cc1)C1CCNCC1", "ASSAY_READOUT": "pIC50", "RESULT": "6.00 to 7.00"}
{"COMPOUND_SMILES": "c1ccc(Oc2ccc(-c3onc4ccc(-c5nnn[nH]5)cc34)cc2)cc1", "ASSAY_READOUT": "pIC50", "RESULT": "4.00 to 6.00"}
{"COMPOUND_SMILES": "CN(C)CCOc1ccc(-c2onc3ccc(-c4nnn[nH]4)cc23)cc1", "ASSAY_READOUT": "pIC50", "RESULT": "6.00 to 7.00"}

Data request: Look at this compound and give its reported pIC50. "c1ccc(-c2onc3ccc(-c4nc[nH]n4)cc23)cc1"
Data returned: 4.00 to 6.00

Data request: Look at this compound and give its reported pIC50. "FC(F)(F)Oc1ccc(-c2onc3ccc(-c4nnn[nH]4)cc23)cc1"
Data returned: 7.00 to 8.00

Data request: Look at this compound and give its reported pIC50. "CN(C)CCOc1cccc(-c2onc3ccc(-c4nnn[nH]4)cc23)c1"
Data returned: 6.00 to 7.00

Data request: Look at this compound and give its reported pIC50. "CC(C)C(=O)N1CCC(c2ccc(-c3onc4ccc(-c5nnn[nH]5)cc34)cc2)CC1"
Data returned: 6.00 to 7.00

Data request: Look at this compound and give its reported pIC50. "O=C(C1CCCC1)N1CCC(Oc2cccc(-c3onc4ccc(-c5nnn[nH]5)cc34)c2)CC1"
Data returned: 7.00 to 8.00

====

- TARGET_DESC: IP6K3 (Homo sapiens (Human))
- ASSAY_SUMMARY: Enzyme-coupled assay of IP6K3 activity (Dipp1-coupled, malachite green Pi release)
- Format: biochemical
- RUN_PARAMETERS: enzyme-coupled assay; Table 6
ASSAY_READOUT: IC50

Data request: Look at this compound and give its reported IC50. O=C(O)c1ccc2onc(-c3ccccc3)c2c1 [Cmpd 91]
Data returned: 100 to 1000 nM

====

- TARGET_DESC: IPMK (Homo sapiens (Human), UniProt Q8NFU5)
- Sequence (Q8NFU5 whole entry, species assumed): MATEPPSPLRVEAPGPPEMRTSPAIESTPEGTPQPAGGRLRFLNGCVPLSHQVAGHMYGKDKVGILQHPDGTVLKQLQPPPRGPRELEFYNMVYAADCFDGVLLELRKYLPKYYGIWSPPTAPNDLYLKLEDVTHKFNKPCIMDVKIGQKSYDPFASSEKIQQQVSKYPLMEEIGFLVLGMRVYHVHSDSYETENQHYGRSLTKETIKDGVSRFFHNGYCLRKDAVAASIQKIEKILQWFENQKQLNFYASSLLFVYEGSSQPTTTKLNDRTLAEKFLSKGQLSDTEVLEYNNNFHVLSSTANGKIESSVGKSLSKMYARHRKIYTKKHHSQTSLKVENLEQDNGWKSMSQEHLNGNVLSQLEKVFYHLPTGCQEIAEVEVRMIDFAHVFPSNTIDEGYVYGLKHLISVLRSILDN
- ASSAY_SUMMARY: Enzyme-coupled assay, IPMK IC50
- Type: biochemical
- RUN_PARAMETERS: enzyme-coupled assay; Table 4
Structures can show the parent of a compound that is named as a salt.
ASSAY_READOUT: IC50

{"MOLECULE": "O=C(Nc1ccc(-c2onc3ccc(-c4nnn[nH]4)cc23)cc1)C1CCCC1", "RESULT": "10 to 100 nM"}

Data request: I'm curious: which IC50 was measured for "c1cncc(-c2ccc(-c3onc4ccc(-c5nnn[nH]5)cc34)cc2)c1" tested on IPMK (Homo sapiens (Human), UniProt Q8NFU5)?
Data returned: < 10 nM

Data request: I'm curious: which IC50 was measured for "Clc1cnc(Oc2cccc(-c3onc4ccc(-c5nnn[nH]5)cc34)c2)c(Cl)c1" tested on IPMK (Homo sapiens (Human), UniProt Q8NFU5)?
Data returned: 10 to 100 nM

Data request: I'm curious: which IC50 was measured for "CC(C)C(=O)Nc1cccc(-c2onc3ccc(-c4nnn[nH]4)cc23)c1" tested on IPMK (Homo sapiens (Human), UniProt Q8NFU5)?
Data returned: < 10 nM

Data request: I'm curious: which IC50 was measured for "CN(C)CCOc1cccc(-c2onc3ccc(-c4nnn[nH]4)cc23)c1" tested on IPMK (Homo sapiens (Human), UniProt Q8NFU5)?
Data returned: < 10 nM

Data request: I'm curious: which IC50 was measured for c1cc(OC2CCNCC2)cc(-c2onc3ccc(-c4nnn[nH]4)cc23)c1 [Compound 82, hydrochloride] tested on IPMK (Homo sapiens (Human), UniProt Q8NFU5)?
Data returned: < 10 nM

Data request: I'm curious: which IC50 was measured for "Clc1ccc(-c2onc3ccc(-c4nnn[nH]4)cc23)cc1Cl" tested on IPMK (Homo sapiens (Human), UniProt Q8NFU5)?
Data returned: 10 to 100 nM
